Data origin: ChEMBL document CHEMBL1136543

# target_of_assay: Cathepsin S (Homo sapiens, UniProt P25774)
pKi: −log10 of the molar value.
endpoint: pKi

Consider the worked cases shown below.
CC(=O)O[C@@H]1NC(=O)[C@H]1NC(=O)C1CCCCN1C(=O)OCc1ccccc1 (some centres undefined)
4.70
O=C(NC1(C(=O)N[C@@H]2C(=O)N[C@H]2Oc2ccccc2)CCCCC1)OCc1ccccc1
4.48
CC(=O)O[C@@H]1NC(=O)[C@H]1NC(=O)C1(NC(=O)OCc2ccccc2)CCCC1
4.55

1 = CC(=O)O[C@@H]1NC(=O)[C@H]1NC(=O)C1(NC(=O)OCc2ccccc2)CCCCC1
2 = O=C(NC1(C(=O)N[C@@H]2C(=O)N[C@@H]2Oc2ccccc2)CCCCC1)OCc1ccccc1
3 = CC(=O)O[C@@H]1NC(=O)[C@H]1NC(=O)[C@@H]1CCCC[C@@H]1NC(=O)OCc1ccccc1
4 = CC(=O)O[C@@H]1NC(=O)[C@H]1NC(=O)[C@H](CC(C)C)NC(=O)OCc1ccccc1
// query Rank descending by pKi. Thanks in advance for listing the labels in the requested order.
// result 4, 3, 1, 2
(4: 8.04, 3: 6.89, 1: 6.02, 2: 4.28)

====

// values below are Ki; system is Cathepsin B (Homo sapiens, UniProt P07858)
endpoint: Ki (µM)

// known answers, use as guide
CC(=O)O[C@@H]1NC(=O)[C@H]1NC(=O)[C@@H]1CCCC[C@@H]1NC(=O)OCc1ccccc1
1.6
CC(=O)O[C@@H]1NC(=O)[C@H]1NC(=O)C1CCCN1C(=O)OCc1ccccc1 (some centres undefined)
120
O=C(NC1(C(=O)N[C@@H]2C(=O)N[C@H]2Oc2ccccc2)CCCCC1)OCc1ccccc1
140
CC(=O)O[C@@H]1NC(=O)[C@H]1NC(=O)C1(NC(=O)OCc2ccccc2)CCCCC1
4.3
CC(=O)O[C@@H]1NC(=O)[C@H]1NC(=O)[C@@H]1CCC[C@@H]1NC(=O)OCc1ccccc1
52

1 = CC(=O)O[C@@H]1NC(=O)[C@H]1NC(=O)C1(NC(=O)OCc2ccccc2)CCCC1
2 = CC(=O)O[C@@H]1NC(=O)[C@H]1NC(=O)C1CCCCN1C(=O)OCc1ccccc1 (some centres undefined)
3 = CC(=O)O[C@@H]1NC(=O)[C@H]1NC(=O)[C@H](CC(C)C)NC(=O)OCc1ccccc1
// query # rank by Ki, ascending (min first) Please, when replying, give the labels in the order that was requested.
// result 3, 1, 2

====

# target_of_assay: Cathepsin B (Homo sapiens)
# assay_details: Selectivity ratio between Cathepsin B and Cathepsin K
endpoint: Ratio

Field: example entries. Status: answers known.
CC(=O)O[C@@H]1NC(=O)[C@H]1NC(=O)C1(NC(=O)OCc2ccccc2)CCCC1
48
CC(=O)O[C@@H]1NC(=O)[C@H]1NC(=O)C1CCCN1C(=O)OCc1ccccc1 (some centres undefined)
120
CC(=O)O[C@@H]1NC(=O)[C@H]1NC(=O)C1(NC(=O)OCc2ccccc2)CCCCC1
750
O=C(NC1(C(=O)N[C@@H]2C(=O)N[C@H]2Oc2ccccc2)CCCCC1)OCc1ccccc1
368
CC(=O)O[C@@H]1NC(=O)[C@H]1NC(=O)[C@@H]1CCC[C@@H]1NC(=O)OCc1ccccc1
24

a = CC(=O)O[C@@H]1NC(=O)[C@H]1NC(=O)C1CCCCN1C(=O)OCc1ccccc1 (some centres undefined)
b = CC(=O)O[C@@H]1NC(=O)[C@H]1NC(=O)[C@H](CC(C)C)NC(=O)OCc1ccccc1
c = CC(=O)O[C@@H]1NC(=O)[C@H]1NC(=O)[C@@H]1CCCC[C@@H]1NC(=O)OCc1ccccc1
// query Your job: order these 3 records by Ratio, ascending. List the labels according to the requested ordering.
// result c, a, b

====

These records show Ki for Cathepsin K (Homo sapiens, UniProt P43235).
endpoint: Ki (nM)

Some solved cases for reference:
CC(=O)O[C@@H]1NC(=O)[C@H]1NC(=O)C1(NC(=O)OCc2ccccc2)CCCC1
160
CC(=O)O[C@@H]1NC(=O)[C@H]1NC(=O)C1(NC(=O)OCc2ccccc2)CCCCC1
5.7
CC(=O)O[C@@H]1NC(=O)[C@H]1NC(=O)[C@H](CC(C)C)NC(=O)OCc1ccccc1
2.2
CC(=O)O[C@@H]1NC(=O)[C@H]1NC(=O)[C@@H]1CCC[C@@H]1NC(=O)OCc1ccccc1
2100
CC(=O)O[C@@H]1NC(=O)[C@H]1NC(=O)C1CCCCN1C(=O)OCc1ccccc1 (some centres undefined)
200
O=C(NC1(C(=O)N[C@@H]2C(=O)N[C@@H]2Oc2ccccc2)CCCCC1)OCc1ccccc1
3600

P = CC(=O)O[C@@H]1NC(=O)[C@H]1NC(=O)C1CCCN1C(=O)OCc1ccccc1 (some centres undefined)
Q = O=C(NC1(C(=O)N[C@@H]2C(=O)N[C@H]2Oc2ccccc2)CCCCC1)OCc1ccccc1
// query Lower Ki: P or Q ? # answer = label of selected item
// result Q

====

# target_of_assay: Cathepsin S (Homo sapiens, UniProt P25774)
# assay_details: Selectivity ratio between Cathepsin S and Cathepsin K
# Sequence (P25774 115-331 limits assumed): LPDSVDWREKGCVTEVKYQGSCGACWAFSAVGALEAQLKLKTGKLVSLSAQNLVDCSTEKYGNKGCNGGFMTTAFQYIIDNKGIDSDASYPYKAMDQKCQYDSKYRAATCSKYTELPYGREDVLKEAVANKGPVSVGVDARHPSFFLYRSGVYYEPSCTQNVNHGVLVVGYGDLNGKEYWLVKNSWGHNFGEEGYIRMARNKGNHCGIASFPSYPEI
endpoint: Ratio

In the examples that follow, each entry is paired with its recorded Ratio.
CC(=O)O[C@@H]1NC(=O)[C@H]1NC(=O)C1(NC(=O)OCc2ccccc2)CCCCC1
160
CC(=O)O[C@@H]1NC(=O)[C@H]1NC(=O)[C@@H]1CCC[C@@H]1NC(=O)OCc1ccccc1
5
CC(=O)O[C@@H]1NC(=O)[C@H]1NC(=O)[C@@H]1CCCC[C@@H]1NC(=O)OCc1ccccc1
15

1 = O=C(NC1(C(=O)N[C@@H]2C(=O)N[C@@H]2Oc2ccccc2)CCCCC1)OCc1ccccc1
2 = CC(=O)O[C@@H]1NC(=O)[C@H]1NC(=O)C1(NC(=O)OCc2ccccc2)CCCC1
// query Pick one: 1 or 2 . Which has the bigger Ratio number? Lab note: record the label of whichever item you select.
// result 2
(2: 175, 1: 15)

I = O=C(NC1(C(=O)N[C@@H]2C(=O)N[C@H]2Oc2ccccc2)CCCCC1)OCc1ccccc1
II = CC(=O)O[C@@H]1NC(=O)[C@H]1NC(=O)[C@H](CC(C)C)NC(=O)OCc1ccccc1
// query Please tell me which of the two, I or II , has the higher reported Ratio value. Lab note: record the label of whichever item you select.
// result I
(I: 87, II: 4)

====

# target_of_assay: Procathepsin L (Homo sapiens)
# assay_details: Selectivity ratio between Cathepsin L and Cathepsin K
# Sequence (P07711 114-333 limits assumed): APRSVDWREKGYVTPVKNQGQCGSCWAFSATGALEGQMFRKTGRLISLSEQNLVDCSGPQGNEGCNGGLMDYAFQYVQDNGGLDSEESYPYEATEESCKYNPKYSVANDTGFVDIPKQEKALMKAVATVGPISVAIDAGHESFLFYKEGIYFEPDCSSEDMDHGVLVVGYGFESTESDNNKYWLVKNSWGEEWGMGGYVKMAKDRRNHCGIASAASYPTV
endpoint: Ratio

1 = CC(=O)O[C@@H]1NC(=O)[C@H]1NC(=O)[C@H](CC(C)C)NC(=O)OCc1ccccc1
2 = CC(=O)O[C@@H]1NC(=O)[C@H]1NC(=O)C1(NC(=O)OCc2ccccc2)CCCCC1
3 = O=C(NC1(C(=O)N[C@@H]2C(=O)N[C@@H]2Oc2ccccc2)CCCCC1)OCc1ccccc1
4 = O=C(NC1(C(=O)N[C@@H]2C(=O)N[C@H]2Oc2ccccc2)CCCCC1)OCc1ccccc1
// query Rank the 4 compounds shown above by Ratio, smallest number first. # answer = labels listed in requested order
// result 3, 4, 1, 2

I = CC(=O)O[C@@H]1NC(=O)[C@H]1NC(=O)[C@@H]1CCCC[C@@H]1NC(=O)OCc1ccccc1
II = CC(=O)O[C@@H]1NC(=O)[C@H]1NC(=O)C1(NC(=O)OCc2ccccc2)CCCC1
// query Compare Ratio: is it lower for I or for II ? Identify your pick by its label.
// result I
(I: 420, II: 870)

====

# target_of_assay: Procathepsin L (Homo sapiens, UniProt P07711)
# assay_details: Inhibitory activity was measured against Cathepsin L
# Sequence (P07711 whole entry): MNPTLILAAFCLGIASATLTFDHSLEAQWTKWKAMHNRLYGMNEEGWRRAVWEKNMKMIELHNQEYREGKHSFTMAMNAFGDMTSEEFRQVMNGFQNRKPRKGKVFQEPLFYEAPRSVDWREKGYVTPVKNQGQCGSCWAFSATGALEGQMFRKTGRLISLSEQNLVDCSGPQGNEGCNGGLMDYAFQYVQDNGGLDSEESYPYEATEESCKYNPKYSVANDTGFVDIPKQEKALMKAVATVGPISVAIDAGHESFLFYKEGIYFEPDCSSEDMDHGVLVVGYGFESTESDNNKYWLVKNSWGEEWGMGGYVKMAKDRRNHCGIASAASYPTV
pKi: −log10 of the molar value.
endpoint: pKi

CC(=O)O[C@@H]1NC(=O)[C@H]1NC(=O)C1(NC(=O)OCc2ccccc2)CCCC1
3.85

I = CC(=O)O[C@@H]1NC(=O)[C@H]1NC(=O)[C@H](CC(C)C)NC(=O)OCc1ccccc1
II = O=C(NC1(C(=O)N[C@@H]2C(=O)N[C@H]2Oc2ccccc2)CCCCC1)OCc1ccccc1
// query Returns the identifier with the smallest measured pKi among I and II . When you have decided, please share the label of that item.
// result II

====

# target_of_assay: Procathepsin L (Homo sapiens)
# assay_details: Selectivity ratio between Cathepsin L and Cathepsin K
Recorded Ratio, one value per entry.

CC(=O)O[C@@H]1NC(=O)[C@H]1NC(=O)[C@@H]1CCC[C@@H]1NC(=O)OCc1ccccc1
> 70
CC(=O)O[C@@H]1NC(=O)[C@H]1NC(=O)C1CCCN1C(=O)OCc1ccccc1 (stereo partly drawn)
> 160

Now let's try a different one.
// query Could you share which Ratio value was measured for CC(=O)O[C@@H]1NC(=O)[C@H]1NC(=O)C1CCCCN1C(=O)OCc1ccccc1 (stereo partly drawn) ?
// result > 750
